target: Epidermal growth factor receptor (Homo sapiens, UniProt P00533, L858R/T790M); experiment: Inhibition of EGFR L858R/T790M double mutant (unknown origin) after 1.5 hrs by FRET-based Z'-Lyte assay
Sequence (P00533 25-1210 T790M/L858R limits assumed): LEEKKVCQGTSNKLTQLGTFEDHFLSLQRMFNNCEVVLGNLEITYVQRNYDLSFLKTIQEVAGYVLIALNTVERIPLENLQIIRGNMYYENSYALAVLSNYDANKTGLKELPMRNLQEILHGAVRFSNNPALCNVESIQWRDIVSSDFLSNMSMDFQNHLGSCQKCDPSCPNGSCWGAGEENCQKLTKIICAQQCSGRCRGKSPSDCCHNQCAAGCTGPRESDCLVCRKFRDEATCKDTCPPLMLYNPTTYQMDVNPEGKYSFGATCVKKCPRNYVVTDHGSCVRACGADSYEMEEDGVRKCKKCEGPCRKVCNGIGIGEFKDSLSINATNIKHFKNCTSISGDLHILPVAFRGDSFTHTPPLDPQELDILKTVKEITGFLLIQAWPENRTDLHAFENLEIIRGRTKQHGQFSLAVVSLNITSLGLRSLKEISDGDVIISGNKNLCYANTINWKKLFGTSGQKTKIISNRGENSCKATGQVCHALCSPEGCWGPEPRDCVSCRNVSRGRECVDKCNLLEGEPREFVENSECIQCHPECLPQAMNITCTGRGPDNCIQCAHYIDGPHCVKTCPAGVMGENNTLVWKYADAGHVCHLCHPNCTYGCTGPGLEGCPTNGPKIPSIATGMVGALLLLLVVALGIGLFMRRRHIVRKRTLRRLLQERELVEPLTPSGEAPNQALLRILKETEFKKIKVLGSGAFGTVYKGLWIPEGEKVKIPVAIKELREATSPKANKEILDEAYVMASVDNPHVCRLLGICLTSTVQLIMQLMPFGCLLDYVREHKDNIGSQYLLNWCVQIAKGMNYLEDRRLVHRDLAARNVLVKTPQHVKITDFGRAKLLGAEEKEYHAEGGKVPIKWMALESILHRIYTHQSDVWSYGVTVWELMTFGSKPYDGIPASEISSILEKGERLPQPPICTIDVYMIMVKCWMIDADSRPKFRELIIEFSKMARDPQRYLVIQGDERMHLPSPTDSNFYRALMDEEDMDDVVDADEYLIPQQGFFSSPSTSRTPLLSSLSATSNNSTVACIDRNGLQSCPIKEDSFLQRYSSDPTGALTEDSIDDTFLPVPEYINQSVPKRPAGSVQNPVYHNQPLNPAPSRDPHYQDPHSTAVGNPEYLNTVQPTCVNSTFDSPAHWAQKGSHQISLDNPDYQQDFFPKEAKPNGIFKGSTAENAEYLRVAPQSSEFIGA
Listing of recorded log10 IC50 by entry.
endpoint_label: log10 IC50 (log10 of the value in nM)

record_smiles | measured_target | log10 IC50
C=CC(=O)N1CC[C@H](N2C(=O)N(c3ccccc3)Cc3cnc(Nc4cccc(N5CCN(C)CC5)c4)nc32)C1 | Epidermal growth factor receptor (Homo sapiens, UniProt P00533, L858R/T790M) | 1.99
C=CC(=O)N1CCC(N2C(=O)N(Cc3ccccc3)Cc3cnc(Nc4ccc(N5CCN(C)CC5)cc4OC)nc32)CC1 | Epidermal growth factor receptor (Homo sapiens, UniProt P00533, L858R/T790M) | 2.16
C=CC(=O)N1CC[C@@H](N2C(=O)N(Cc3ccccc3)Cc3cnc(Nc4ccc(N5CCN(C)CC5)cc4OC)nc32)C1 | Epidermal growth factor receptor (Homo sapiens, UniProt P00533, L858R/T790M) | 2.03
C=CC(=O)N1CC[C@H](N2C(=O)N(c3ccccc3)Cc3cnc(Nc4ccc(CCN5CCN(C)CC5)cc4)nc32)C1 | Epidermal growth factor receptor (Homo sapiens, UniProt P00533, L858R/T790M) | 1.62
C=CC(=O)N1CC[C@H](N2C(=O)N(C(C)C)Cc3cnc(Nc4ccc(N5CCN(C)CC5)cc4OC)nc32)C1 | Epidermal growth factor receptor (Homo sapiens, UniProt P00533, L858R/T790M) | 2.94
C=CC(=O)N1CC[C@H](N2C(=O)N(C)Cc3cnc(Nc4ccc(N5CCN(C)CC5)cc4OC)nc32)C1 | Epidermal growth factor receptor (Homo sapiens, UniProt P00533, L858R/T790M) | 2.72
C=CC(=O)N1CC[C@H](N2C(=O)N(c3ccccc3)Cc3cnc(Nc4ccc(N5CCN(C)CC5)cc4OC)nc32)C1 | Epidermal growth factor receptor (Homo sapiens, UniProt P00533, L858R/T790M) | 1.18
C=CC(=O)N1CC[C@H](N2C(=O)N(c3ccccc3)Cc3cnc(Nc4ccccc4)nc32)C1 | Epidermal growth factor receptor (Homo sapiens, UniProt P00533, L858R/T790M) | 2.37
C=CC(=O)N1CCC[C@@H](N2C(=O)N(Cc3ccccc3)Cc3cnc(Nc4ccc(N5CCN(C)CC5)cc4OC)nc32)C1 | Epidermal growth factor receptor (Homo sapiens, UniProt P00533, L858R/T790M) | 1.61
C=CC(=O)N1CC[C@H](N2C(=O)N(C3CCCCC3)Cc3cnc(Nc4ccc(N5CCN(C)CC5)cc4OC)nc32)C1 | Epidermal growth factor receptor (Homo sapiens, UniProt P00533, L858R/T790M) | 1.63

====

experiment: Clearance in Sprague-Dawley rat at 5 mg/kg, iv by LC/MS analysis; assay type: ADME, organism-based; set-up: dose 5 mg/kg, route intravenous; details: in vivo

record_smiles | clearance / mL/min/kg
C=CC(=O)N1CC[C@H](N2C(=O)N(c3ccccc3)Cc3cnc(Nc4ccc(CCN5CCN(C)CC5)cc4)nc32)C1 | 153
C=CC(=O)N1CC[C@H](N2C(=O)N(c3ccccc3)Cc3cnc(Nc4ccccc4)nc32)C1 | 41.7
C=CC(=O)N1CC[C@H](N2C(=O)N(c3ccccc3)Cc3cnc(Nc4cccc(N5CCN(C)CC5)c4)nc32)C1 | 113
C=CC(=O)N1CC[C@H](N2C(=O)N(Cc3ccccc3)Cc3cnc(Nc4ccc(N5CCN(C)CC5)cc4OC)nc32)C1 | 240
C=CC(=O)Nc1cccc(N2C(=O)N(Cc3ccccc3)Cc3cnc(Nc4ccc(N5CCN(C)CC5)cc4OC)nc32)c1.CS(=O)(=O)O | 53.3
